# PROTOCOL DETAILS: Pharmacokinetic study (plasma total DTX)
# Format: in vivo
# MEASUREMENT CONDITIONS: total DTX in plasma; read-out: VDβ (volume of distribution)
QUANTITY: Vd (L)

>>> numeric_readout("CC(=O)O[C@@]12CO[C@@H]1C[C@H](O)[C@@]1(C)C(=O)[C@H](O)C3=C(C)[C@@H](OC(=O)[C@H](O)[C@@H](NC(=O)OC(C)(C)C)c4ccccc4)C[C@@](O)([C@@H](OC(=O)c4ccccc4)[C@H]21)C3(C)C [Free DTX, Docetaxel]")
0.664

---

# PROTOCOL DETAILS: Pharmacokinetic study (plasma total DTX)
# Type: in vivo
# MEASUREMENT CONDITIONS: total DTX in plasma; read-out: Half Life (β) (converted)
QUANTITY: half-life (h)

>>> numeric_readout("CC(=O)O[C@@]12CO[C@@H]1C[C@H](O)[C@@]1(C)C(=O)[C@H](O)C3=C(C)[C@@H](OC(=O)[C@H](O)[C@@H](NC(=O)OC(C)(C)C)c4ccccc4)C[C@@](O)([C@@H](OC(=O)c4ccccc4)[C@H]21)C3(C)C [Free DTX, Docetaxel]")
3.12
